Where do these numbers come from? They come from PubChem BioAssay AID1220.

Measured inhibition by item
Molecular target: Mannose-6-phosphate isomerase (Homo sapiens)
Test: MPI inhibition at elevated mannose 6-phosphate – biochemical, fluorescence intensity, high mannose 6-phosphate, primary screen (AID 1220)
Settings: recombinant PMI enzyme, coupled fluorescence intensity; at 20 µM; active compounds read high
Screen size: about 190,000 compounds; about 1,300 (0.68%) were called active. The entries come from a sample that favours actives as a whole.
Endpoint name: inhibition (%)

Compound | Tested on | Numeric result
c1ccc(-c2cc3nccc(-c4ccccn4)n3n2)cc1 | Mannose-6-phosphate isomerase (Homo sapiens) | 61.5
COc1ccc(C(=O)C2C(c3ccc(-c4ccccc4[N+](=O)[O-])o3)NC(=O)NC2(O)C(F)(F)F)cc1 (stereo unspecified) | Mannose-6-phosphate isomerase (Homo sapiens) | 43.4
COc1ccccc1NC(=O)c1cnc(Nc2ccccc2OC)c2ccccc12 | Mannose-6-phosphate isomerase (Homo sapiens) | 6.4
CCN(CCn1cccn1)C(=O)CCc1nnc(-c2ccc3c(c2)OCO3)o1 | Mannose-6-phosphate isomerase (Homo sapiens) | 5.8
Cc1cc(C)n(-c2nc(NCc3cccnc3)c3c4c(sc3n2)COC(C)(C)C4)n1 | Mannose-6-phosphate isomerase (Homo sapiens) | 6.9
O=C(Oc1c(Cl)cc(Cl)c2cccnc12)c1cccs1 | Mannose-6-phosphate isomerase (Homo sapiens) | 1.8
O=C(N/N=C/c1cc2c3c(c1O)CCCN3CCC2)c1ccccc1O | Mannose-6-phosphate isomerase (Homo sapiens) | 50.2
C=CCn1c(SCC(=O)Nc2ccccc2)nnc1-c1cccc(S(=O)(=O)N2CCOCC2)c1 | Mannose-6-phosphate isomerase (Homo sapiens) | 3.2
Cc1cc2nccc(-c3ccccn3)n2n1 | Mannose-6-phosphate isomerase (Homo sapiens) | -0.9
CN1CCN(S(=O)(=O)c2ccc3c(c2)OCCO3)CC1 | Mannose-6-phosphate isomerase (Homo sapiens) | -4.9
O=C(Oc1c(CN2CCOCC2)cc(Cl)c2cccnc12)c1cccs1 | Mannose-6-phosphate isomerase (Homo sapiens) | 56.4

====

Catalogue of inhibition readings, one per entry.
Target: Mannose-6-phosphate isomerase (Homo sapiens)
Test: MPI inhibition at elevated mannose 6-phosphate – biochemical, fluorescence intensity, high mannose 6-phosphate, primary screen (AID 1220)
Details: recombinant PMI enzyme, coupled fluorescence intensity; at 20 µM; active compounds read high
About 1,300 (0.68%) of roughly 190,000 compounds were called active. Only a selection was taken, and actives are over-represented in it overall.

Compound | Tested on | inhibition
COc1ccc(-c2nnc3ccc(SCC(=O)N4CCOCC4)nn23)cc1 | Mannose-6-phosphate isomerase (Homo sapiens) | -2.8% (inactive)
Cc1ccc(N2C(=O)C(O)(C(F)(F)F)C3=C2CC(C)(C)CC3=O)cc1C (configuration not stated) | Mannose-6-phosphate isomerase (Homo sapiens) | -10% (inactive)
CCN1C(=O)/C(=C/C=C2/SCCN2C)SC1=S | Mannose-6-phosphate isomerase (Homo sapiens) | 27.6% (inactive)
O=C(NC1CC1)C1=C[C@H](c2csc3ccccc23)C[C@H](OCCCCO)O1 | Mannose-6-phosphate isomerase (Homo sapiens) | 1.4% (inactive)
COc1ccc(NCc2nnc(SCC(=O)Nc3ccc(OC)cc3)n2C)cc1 | Mannose-6-phosphate isomerase (Homo sapiens) | -0.9% (inactive)
N#Cc1c(N)n(CCNC(=O)c2ccc(Cl)cc2)c2nc3ccccc3nc12 | Mannose-6-phosphate isomerase (Homo sapiens) | 16.9% (inactive)
O=C(O)C1=C[C@H](c2csc3ccccc23)C[C@H](OCCCCO)O1 | Mannose-6-phosphate isomerase (Homo sapiens) | -1.5% (inactive)
CC1CCCCN1C(=O)C12CCC(C)(C(=O)C1)C2(C)C (configuration not stated) | Mannose-6-phosphate isomerase (Homo sapiens) | 48.1% (inactive)
CCN(C(=O)COc1cccc2cccnc12)C1CCS(=O)(=O)C1 (configuration not stated) | Mannose-6-phosphate isomerase (Homo sapiens) | 63.2% (active)
COc1cccc(CN2CCNC(=O)C2CC(=O)NCCn2cccn2)c1OC (configuration not stated) | Mannose-6-phosphate isomerase (Homo sapiens) | 16.7% (inactive)
COc1ccc(-c2nnc(SC)o2)c(OC)c1 | Mannose-6-phosphate isomerase (Homo sapiens) | 2% (inactive)
Cn1c(=O)c2cc(S(=O)(=O)NC(C(=O)Nc3cccc(F)c3)c3ccccc3)ccc2n(C)c1=O (configuration not stated) | Mannose-6-phosphate isomerase (Homo sapiens) | 1.9% (inactive)
COCCNC(=O)CN(C(=O)Cn1nnc2ccccc21)c1ccc(F)c(Cl)c1 | Mannose-6-phosphate isomerase (Homo sapiens) | -5.3% (inactive)
CCOC(=O)c1ccc(NC(=O)CSc2nnc(CNc3ccc(C)cc3)n2C)cc1 | Mannose-6-phosphate isomerase (Homo sapiens) | 11.2% (inactive)
CN1C(=O)CC(C(=O)O)SC1=Nc1ccc(F)cc1 (configuration not stated) | Mannose-6-phosphate isomerase (Homo sapiens) | -4.1% (inactive)
CNCc1ccccc1Sc1cc(O)ccc1O | Mannose-6-phosphate isomerase (Homo sapiens) | 41.3% (inactive)
COc1ccc(C(=S)Nc2ccc(C)cc2)cc1 | Mannose-6-phosphate isomerase (Homo sapiens) | 3.8% (inactive)
O=c1[nH]ncc(N2CCCCC2)c1Cl | Mannose-6-phosphate isomerase (Homo sapiens) | 12.3% (inactive)
CCN(C(=O)COc1cccnc1[N+](=O)[O-])C1CCS(=O)(=O)C1 (configuration not stated) | Mannose-6-phosphate isomerase (Homo sapiens) | 43.2% (inactive)
O=C1CCC2=C(CCCC2=O)N1 | Mannose-6-phosphate isomerase (Homo sapiens) | 0.9% (inactive)
Cc1nc2sccn2c1P(c1c(C)nc2sccn12)c1c(C)nc2sccn12 | Mannose-6-phosphate isomerase (Homo sapiens) | -5.7% (inactive)
Cn1c(-c2ccc(F)cc2)cnc1NCc1cc2c(cc1[N+](=O)[O-])OCO2 | Mannose-6-phosphate isomerase (Homo sapiens) | 15.7% (inactive)
CC/C(=N/OC(=O)c1cccc(C)c1)C(=O)c1cccs1 | Mannose-6-phosphate isomerase (Homo sapiens) | -0.6% (inactive)
CN(Cc1ccccc1)C(=O)CC(c1ccccc1)c1cc(Cl)ccc1O (configuration not stated) | Mannose-6-phosphate isomerase (Homo sapiens) | 4.5% (inactive)
COc1ccc(C2SCC(=O)N2c2c(C)n(C)n(-c3ccccc3)c2=O)cc1OC (configuration not stated) | Mannose-6-phosphate isomerase (Homo sapiens) | -1.7% (inactive)
COc1cc(OC)c(NC(=O)CC(C)=O)cc1Cl | Mannose-6-phosphate isomerase (Homo sapiens) | 26.6% (inactive)
COc1cccc(CN2CCNC(=O)C2CC(=O)NCCn2ccc3ccccc32)c1OC (configuration not stated) | Mannose-6-phosphate isomerase (Homo sapiens) | 51.1% (active)
CCN(C(=O)COc1ccccc1[N+](=O)[O-])C1CCS(=O)(=O)C1 (configuration not stated) | Mannose-6-phosphate isomerase (Homo sapiens) | -4% (inactive)
O=C(C1=C[C@H](c2csc3ccccc23)C[C@H](OCCCCO)O1)N1CCOCC1 | Mannose-6-phosphate isomerase (Homo sapiens) | 9.5% (inactive)
CC(=O)NCC(=O)N(C)C(C(=O)Nc1ccc2c(c1)OCCO2)c1ccc(C)cc1 (configuration not stated) | Mannose-6-phosphate isomerase (Homo sapiens) | 5.2% (inactive)
CCCCN1C(=O)/C(=C/C=C2\SCCN2C)SC1=S | Mannose-6-phosphate isomerase (Homo sapiens) | 53.5% (active)
Clc1ccc(CSc2ncnc3nc[nH]c23)cc1 | Mannose-6-phosphate isomerase (Homo sapiens) | 3.6% (inactive)
COc1nc(Nc2cccc([N+](=O)[O-])c2)nc(OC)n1 | Mannose-6-phosphate isomerase (Homo sapiens) | 11.7% (inactive)
CC(=O)OC1CC(C)(C)N(OC(=O)c2ccccc2)C(C)(C)C1 | Mannose-6-phosphate isomerase (Homo sapiens) | -2.2% (inactive)
CN1CCS/C1=C\C=C1/SC(=S)N(CC(=O)O)C1=O | Mannose-6-phosphate isomerase (Homo sapiens) | 19.8% (inactive)
CCCCn1c(NC(=O)c2ccccc2)nc2ccccc21 | Mannose-6-phosphate isomerase (Homo sapiens) | -3.6% (inactive)
COc1cccc(CN2CCNC(=O)C2CC(=O)NCc2cn3ccccc3n2)c1OC (configuration not stated) | Mannose-6-phosphate isomerase (Homo sapiens) | 7.8% (inactive)
CCN1CCC(NC(=O)Nc2ccc(F)cc2F)CC1 | Mannose-6-phosphate isomerase (Homo sapiens) | -11.5% (inactive)
CCOc1ccc(NC(=O)C2CCN(C(=O)NC3CCCCC3)CC2)cc1 | Mannose-6-phosphate isomerase (Homo sapiens) | -11.9% (inactive)
CCOc1ccc(NC(=O)NC2CCOC(C)(C)C2)cc1 (configuration not stated) | Mannose-6-phosphate isomerase (Homo sapiens) | 11.5% (inactive)
CCOC(=O)Nc1ccc(Oc2ccccc2)cc1 | Mannose-6-phosphate isomerase (Homo sapiens) | 4.8% (inactive)
Cc1cc(N)n2ncc(-c3ccc(F)cc3)c2n1 | Mannose-6-phosphate isomerase (Homo sapiens) | 6.9% (inactive)
Cc1[nH]c(=O)c(C#N)cc1-c1ccccc1 | Mannose-6-phosphate isomerase (Homo sapiens) | 10.3% (inactive)
CCOc1ccc(NCC2CCOC(C)(C)C2)cc1 (configuration not stated) | Mannose-6-phosphate isomerase (Homo sapiens) | 50.9% (active)
O=C(O)C1=C[C@@H](c2csc3ccccc23)C[C@@H](OCCCCO)O1 | Mannose-6-phosphate isomerase (Homo sapiens) | 1.5% (inactive)
CC1Cc2ccccc2N1C(=O)CSc1nnc(-c2ccccc2)c(-c2ccccc2)n1 (configuration not stated) | Mannose-6-phosphate isomerase (Homo sapiens) | 37.9% (inactive)
CSc1nc(-c2ccccc2)c(-c2ccccc2)[nH]1 | Mannose-6-phosphate isomerase (Homo sapiens) | -9.1% (inactive)
